System: human embryonic lung (HEL) fibroblasts
Procedure summary: Minimum cytotoxic concentration, HEL cell morphology
Experimental conditions: Table 4 (HCMV/VZV assays)
Would you mind telling me the reported Cytotoxicity MCC of each entry?

Some molecules with known Cytotoxicity MCC results, for comparison:
{"Molecule": "COC(=O)[C@H](C)NP(=O)(OCC(CO)CCn1cnc2c(OC)nc(N)nc21)Oc1cccc2ccccc12 (stereo partly shown)", "Cytotoxicity MCC": "≥50 µM"}
{"Molecule": "C[C@H](NP(=O)(OCC(CO)CCn1cnc2c(Cl)nc(N)nc21)Oc1ccccc1)C(=O)OCc1ccccc1 (mixture of isomers)", "Cytotoxicity MCC": ">100 µM"}
{"Molecule": "COc1nc(N)nc2c1ncn2CCC(CO)COP(=O)(N[C@@H](C)C(=O)OCC(C)(C)C)Oc1cccc2ccccc12 (stereo partly shown)", "Cytotoxicity MCC": ">50 µM"}

Problem: Annotate the molecule CCCOC(=O)[C@H](C)NP(=O)(OCC(CCn1cnc2c(OC)nc(N)nc21)COP(=O)(N[C@@H](C)C(=O)OCCC)Oc1cccc2ccccc12)Oc1cccc2ccccc12 (stereo partly shown) with its measured Cytotoxicity MCC.
Solution: ≥50 µM
